The reported measurements were obtained from patent US10889591B2.

testDetails: Canine pharmacokinetic evaluation
Format: in vivo
measurementConditions: dog, plasma, po; Beagle dogs, intragastric 2 mg/kg, n = 3; read-out: tz1/2 po (terminal elimination half-life) (converted)
Items are presented alongside their recorded half-life.
I only need the number, in h, no unit after it.

compound: N#Cc1c(N2CCC3(CC2)CC3)c2ccncc2[nH]c1=O [Compound 25]
unitSpec: h
half-life: 9.45

stdin: Fill in: half-life of Cc1cc2c(N3CCC4(CCC4)CC3)c(C#N)c(=O)[nH]c2cn1 [Compound 65] is ___
stdout: 0.47

----------
testDetails: Rat pharmacokinetic evaluation
Assay type: in vivo, SD male rats
measurementConditions: male, Sprague-Dawley, plasma; SD rat, dose iv/po 1/5 mg/kg; read-out: F % (absolute bioavailability)
quantityName: bioavailability

stdin: # lookup: bioavailability of CCc1cc2c(N3CCC4(CC3)CC4)c(C#N)c(=O)[nH]c2cn1
stdout: 113%

stdin: Can you check CC(C)(O)c1cc2c(N3CCC4(CC3)CC4)c(C#N)c(=O)[nH]c2cn1 next?
stdout: 62.5%

stdin: Proceed to CCc1cc2c(N3CCC(C)(OC)CC3)c(C#N)c(=O)[nH]c2cn1
stdout: 56.8%

----------
testDetails: Canine pharmacokinetic evaluation
Assay type: in vivo
measurementConditions: dog, plasma, po; Beagle dogs, intragastric 1 mg/kg, n = 3; read-out: tz1/2 po (terminal elimination half-life) (converted)
quantityName: half-life (h)
All answers are understood in h, so give the number only.

stdin: Value lookup for half-life; key = CCc1cc2c(N3CCC(C)(OC)CC3)c(C#N)c(=O)[nH]c2cn1
stdout: 2.56

----------
testDetails: Rat pharmacokinetic evaluation
Format: in vivo, SD male rats
measurementConditions: male, Sprague-Dawley, plasma; SD rat, intravenous bolus 1 mg/kg; read-out: Cl_obs iv (clearance rate) (converted)
quantityName: clearance (mL/min/kg)
All answers are understood in mL/min/kg, so give the number only.

Study these solved cases before continuing.
compound: N#Cc1c(N2CCC3(CC2)CC3)c2ccncc2[nH]c1=O [Compound 25]
clearance / mL/min/kg: 29.3
//
compound: N#Cc1c(N2CCC3(CC2)CC3)c2cc(C(O)C3CC3)ncc2[nH]c1=O (stereo not shown) [Compound 90]
clearance / mL/min/kg: 10.5
//
compound: CC(C)(O)c1cc2c(N3CCC4(CC3)CC4)c(C#N)c(=O)[nH]c2cn1 [Compound 84]
clearance / mL/min/kg: 8.17
//
compound: CCc1cc2c(N3CCC(C)(OC)CC3)c(C#N)c(=O)[nH]c2cn1 [Compound 107]
clearance / mL/min/kg: 24.2
//
compound: CCc1cc2c(N3CCC4(CC3)CC4)c(C#N)c(=O)[nH]c2cn1 [Compound 76]
clearance / mL/min/kg: 17.3

stdin: Give the measured clearance of CNC(=O)c1cc2c(N3CCC4(CC3)CC4)c(C#N)c(=O)[nH]c2cn1 [Compound 96] .
stdout: 22

stdin: What do you get for Cc1cc2c(N3CCC4(CCC4)CC3)c(C#N)c(=O)[nH]c2cn1 [Compound 65] ?
stdout: 13.8

----------
List of k values.
measurementConditions: human
Value expressed in min⁻¹; do not type the unit.

stdin: Query (molecule): CCc1cc2c(N3CCC4(CC3)CC4)c(C#N)c(=O)[nH]c2cn1 ; field requested: k
stdout: 0.0015

stdin: Now give it for CC(C)(O)c1cc2c(N3CCC4(CCC4)CC3)c(C#N)c(=O)[nH]c2cn1 too.
stdout: 0.9760

stdin: Request: N#Cc1c(N2CCC3(CCC3)CC2)c2cc(N3CC(N)C3)ncc2[nH]c1=O
stdout: 0.4821

stdin: Then N#Cc1c(N2CCC3(CCC3)CC2)c2cc(N3CC(O)C3)ncc2[nH]c1=O ?
stdout: 0.9418

stdin: Try this molecule next: N#Cc1c(N2CCC3(CC2)CC3)c2ncccc2[nH]c1=O
stdout: 0.9877

stdin: Ok, now N#Cc1c(N2CCC3(CC2)CC3)c2ccncc2[nH]c1=O
stdout: 0.0022

stdin: Next molecule up: N#Cc1c(N2CCC3(CC2)CC3)c2cc(C(O)C3CC3)ncc2[nH]c1=O (stereo not shown)
stdout: 0.0037

----------
Recorded log10 half-life at 1 μM for the following compounds
testDetails: Stability in human liver microsome
measurementConditions: human, liver microsomes
Record value = log10 of half-life at 1 μM given in h.

Look over these answered cases.
compound: N#Cc1c(Nc2ccc(Cl)cc2)c2ccncc2[nH]c1=O [Compound 18]
quantityName: log10 half-life at 1 μM
val: -0.73

compound: N#Cc1c(N2CC[C@@H](n3cccn3)C2)c2ccncc2[nH]c1=O [Compound 19]
quantityName: log10 half-life at 1 μM
val: 1.28

compound: COCCOc1cc2c(N3CCC(C)(OC)CC3)c(C#N)c(=O)[nH]c2cn1 [Compound 145]
quantityName: log10 half-life at 1 μM
val: 0.78

compound: COC1(C)CCN(c2c(C#N)c(=O)[nH]c3cnc(C(C)(C)O)cc23)CC1 [Compound 109]
quantityName: log10 half-life at 1 μM
val: 1.06

compound: CCc1cc2c(N3CCC(C)(OC)CC3)c(C#N)c(=O)[nH]c2cn1 [Compound 107]
quantityName: log10 half-life at 1 μM
val: 0.70

stdin: Find the recorded log10 half-life at 1 μM belonging to COC1(C)CCN(c2c(C#N)c(=O)[nH]c3cnc(C)cc23)CC1 [Compound 158] and report it.
stdout: 0.95

stdin: Then COC1(C)CCN(c2c(C#N)c(=O)[nH]c3cnccc23)CC1 [Compound 81] ?
stdout: 0.98

----------
testDetails: Stability in human liver microsome
measurementConditions: human liver microsome 0.5 mg protein/mL, compound 1 μM, β-NADPH 1 mM, 37° C., 60 min
As shown below, each of these molecules has a reported Original drug residual % at 60 min value.
Form field: result (number plus unit)

molecule: COC1(C)CCN(c2c(C#N)c(=O)[nH]c3cnccc23)CC1
Original drug residual % at 60 min: 94.6%

stdin: Dear colleague, I am looking for the recorded Original drug residual % at 60 min of the following molecule: N#Cc1c(Nc2ccc(Cl)cc2)c2ccncc2[nH]c1=O
stdout: 5.19%

stdin: Would you kindly repeat that for CCc1cc2c(N3CCC(C)(OC)CC3)c(C#N)c(=O)[nH]c2cn1 ?
stdout: 88.5%

stdin: And for N#Cc1c(N2CCC3(CC2)CC3)c2cc(C(O)CO)ncc2[nH]c1=O (stereo not shown) ?
stdout: 99.8%

stdin: Follow-up entry: N#Cc1c(N2CCC3(CC2)CC3)c2cc(C(=O)O)ncc2[nH]c1=O
stdout: 104.1%

----------
systemName: PDE5A1 Enzyme (Homo sapiens (Human))
testDetails: PDE enzymology evaluation, PDE5A1
Format: biochemical
# Lookup of reported IC50 keyed by entry

compoundString: N#Cc1c(N2CCC3(CC2)COC3)c2ccncc2[nH]c1=O
IC50: > 10000 nM

Attention now turns to another entry.
stdin: Which IC50 value is on record for N#Cc1c(N2CCC3(CC2)CC3)c2ccncc2[nH]c1=O ?
stdout: > 3000 nM

----------
testDetails: in vitro
measurementConditions: human, microsomes
Cut-off 3 h on half-life: below means 1, at or above means 0.

Answered examples (4):
compound: CC(C)(O)c1cc2c(N3CCC4(CCC4)CC3)c(C#N)c(=O)[nH]c2cn1
classification: 1
--
compound: N#Cc1c(N2CCC3(CCC3)CC2)c2cc(N3CC(O)C3)ncc2[nH]c1=O
classification: 1
--
compound: N#Cc1c(N2CCC3(CC2)CC3)c2cc(C(O)C3CC3)ncc2[nH]c1=O (centres unmarked)
classification: 0
--
compound: CCc1cc2c(N3CCC4(CC3)CC4)c(C#N)c(=O)[nH]c2cn1
classification: 0

stdin: Determine whether this compound shows half-life lower than 3 h (ties excluded): N#Cc1c(N2CCC3(CCC3)CC2)c2cc(N3CC(N)C3)ncc2[nH]c1=O
stdout: 0

----------
testDetails: Rat pharmacokinetic evaluation
Type: in vivo, SD male rats
measurementConditions: male, Sprague-Dawley, plasma; SD rat, dose iv/po 1/5 mg/kg; read-out: F % (absolute bioavailability)
The compounds listed here are annotated with their bioavailability.
Entry rule: numbers only, all in %.

Use these answered entries as a reference point.
compound: Cc1cc2c(N3CCC4(CCC4)CC3)c(C#N)c(=O)[nH]c2cn1 [Compound 65]
bioavailability / %: 51.8

compound: N#Cc1c(N2CCC3(CC2)CC3)c2ccncc2[nH]c1=O [Compound 25]
bioavailability / %: 74.2

stdin: Returns the measured bioavailability for the input compound. Input: N#Cc1c(N2CCC3(CC2)CC3)c2cc(C(O)C3CC3)ncc2[nH]c1=O (stereo not drawn) [Compound 90]
stdout: 47.4

----------
testDetails: Stability in human liver microsome
measurementConditions: human liver microsome 0.5 mg protein/mL, compound 1 μM, β-NADPH 1 mM, 37° C., 60 min
quantityName: Original drug residual % at 60 min (%)
Hi! Could you send only the number? It should be in %, unit omitted.

Solved entries:
compoundString: COc1cc2c(N3CCC4(CCC4)CC3)c(C#N)c(=O)[nH]c2cn1
quantityName: Original drug residual % at 60 min
val: 101

compoundString: COC1(C)CCN(c2c(C#N)c(=O)[nH]c3cnc(C)cc23)CC1
quantityName: Original drug residual % at 60 min
val: 92.6

compoundString: N#Cc1c(N2CC[C@@H](n3cccn3)C2)c2ccncc2[nH]c1=O
quantityName: Original drug residual % at 60 min
val: 93.4

compoundString: COC1(C)CCN(c2c(C#N)c(=O)[nH]c3cnc(C(C)(C)O)cc23)CC1
quantityName: Original drug residual % at 60 min
val: 91.9

Then this molecule:
stdin: Form field: reported Original drug residual % at 60 min of COCCOc1cc2c(N3CCC(C)(OC)CC3)c(C#N)c(=O)[nH]c2cn1
stdout: 88.2
